Sourced from the RNAGym collection of RNA variant scans (doi:10.1126/science.aae0568)

B1: tRNA (parent)
chain: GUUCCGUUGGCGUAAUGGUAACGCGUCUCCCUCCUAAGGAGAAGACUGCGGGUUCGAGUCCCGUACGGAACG

- Variants of: B1
- assay text: yeast fitness relative to wild type (ratio to wild type); higher = fitter; tRNA-Arg(CCU), competitive growth, 37 C, YPD
This sample holds only a part of the variants without activity.
recorded endpoint: yeast fitness

macromolecule sequence	result
GUUCCGUUGGCGUAAUGGUAACGCGUCUGCCUUCUAGGGCGAAGACUGCGGGUUCGAGUCCCGUACGGAACG [C29G C33U A37G A40C]	≤ 0.5
GUUCCGGUGGCGUAAUGGUAACGCGUCUCUCUCCUGAGGAGAAGACUGCGGGUUGGAGUCCCGUACGGAACG [U7G C30U A36G C55G]	≤ 0.5
GUUCCGAUGGCGUUAUGGUAACGCGUCUCCCUCCUUAGGAGAAGACUGCCGGUACAAGUCACGUACGGAACG [U7A A14U A36U G50C U54A G56A C61A]	≤ 0.5
GUUCCGUUGGCAUAAUGGUAACGCGUUUCCCUCCUAAGGAGAAGACUGCGGGUUCGAGUCCCGUACAGAACG [G12A C27U G67A]	0.571
GUUCCGUUGGCGUUAUGGUAACGCGUCUCACUCCUAAGGAGAAGACUGCGGGUUCGAGUCCCGUACGGAACG [A14U C30A]	0.565
GUUCGGCUGGCGUAAUGGUAACGCGUCUCCCUCCUAAGGAGAAGACUGCGCGUUCGAGUCCCGUACGGAACG [C5G U7C G51C]	0.564
GUUCCGUUGGCGUAAUGGUAACGCGUCCCCCUCCUAAGGAGAAGACUGCGGGUUCGAGUCCCGUACGGCACG [U28C A69C]	0.94
GUUCCGUUGGCGUAAUGGUAACGCGUCUCCCCCCUAAGGAGAAGACUACGGGUUCGCGUCCCGUACGGAACG [U32C G48A A57C]	≤ 0.5
GUUCCGUUGACGUUAUGGUAACGCGUCUCCCUCCUAAGGAGAAGACUGCGGGUUCGAGUCCCGUACGGAACG [G10A A14U]	≤ 0.5
GUUCCGUUGGCGUAUUGGUAACGUGUCUCCCUCCUAUGGAGAAGACUGCGGGUGCGAGUCCCGUACGGAACG [A15U C24U A37U U54G]	≤ 0.5
GUUCCGUUGGCGUAAUGGUAACGCGCCUCCCUCCUAAGGAGAAGACUGCGGGUUCGAGUCGCAUACGGUACG [U26C C61G G63A A69U]	0.532
GUUCCGUUGACGUAGUGGUAACGCGUCUCCCUCCUAAGGAGAAGACUGCGGGUUCGAGUCCCGUACGGAACG [G10A A15G]	0.782
GUUCCGUUGGCGAAAUGGUAACGCGUGUCCCUCCUAAGGAGAAGGCUGCGGGUUCGAGUCCCGAACGGAACG [U13A C27G A45G U64A]	0.62
GUUCCGUUGGCGUAAUGGUAACGCGUCUCCCUCCUAAGGAGAAGACUGCCCGUUCGAGUCCCGUACGGAACG [G50C G51C]	0.522
GUUCCGUUGGCGAAAUGGUAACGUGUCUCCCUCCUAAGGAGAAGACUGGGGGUUCGAGUCCCGUACGGAACG [U13A C24U C49G]	≤ 0.5
GUUGCGUUGGCGUAAUGGUAACGUGUCUCCCUCCUAAGGAGAAGACUGCGGGUUCGAGCCCCGUACGGAACG [C4G C24U U59C]	≤ 0.5
